# Tested on: E. coli ML 4707
# EXPERIMENT DESCRIPTION: In vitro antibacterial activity, MIC (standard strain)
# Type: cell-based
# STUDY CONDITIONS: Escherichia coli, ML4707; E. coli ML 4707; 10^6 cells/ml; standard strain; read-out: MIC
Counter-ions that a name gives are not always drawn.
Give measured MIC for each item. Keep answers brief.
Please answer using the number first and the unit second.

Example entries and their recorded answers appear below.
{"COMPOUND": "NCC1CCN(c2c(F)cc3c(=O)c(C(=O)O)cn(C4CC4)c3c2Br)C1 (stereo not drawn)", "TARGET OR SYSTEM": "E. coli ML 4707", "MIC": "0.025 µg/mL"}
{"COMPOUND": "CN(C)CC1CCN(c2c(F)cc3c(=O)c(C(=O)O)cn(C4CC4)c3c2Cl)C1 (stereo not drawn)", "TARGET OR SYSTEM": "E. coli ML 4707", "MIC": "0.05 µg/mL"}
{"COMPOUND": "CNCC1CCN(c2c(F)cc3c(=O)c(C(=O)O)cn(C4CC4)c3c2F)C1 (stereo not drawn) [Example 8, hydrochloride]", "TARGET OR SYSTEM": "E. coli ML 4707", "MIC": "0.025 µg/mL"}
{"COMPOUND": "CCn1cc(C(=O)O)c(=O)c2cc(F)c(N3CCNCC3)cc21 [NFLX, Norfloxacin, reference compound]", "TARGET OR SYSTEM": "E. coli ML 4707", "MIC": "0.05 µg/mL"}
{"COMPOUND": "CCNCC1CCN(c2cc3c(cc2F)c(=O)c(C(=O)O)cn3C2CC2)C1.Cl (stereo not drawn)", "TARGET OR SYSTEM": "E. coli ML 4707", "MIC": "0.05 µg/mL"}
{"COMPOUND": "CNCC1CCN(c2c(F)cc3c(=O)c(C(=O)O)cn(C4CC4)c3c2Br)C1 (stereo not drawn)", "TARGET OR SYSTEM": "E. coli ML 4707", "MIC": "0.025 µg/mL"}

# map each compound to its MIC
1. NCC1CCN(c2c(F)cc3c(=O)c(C(=O)O)cn(C4CC4)c3c2F)C1 (stereo not drawn) [Example 1, hydrochloride]
2. CCNCC1CCN(c2c(F)cc3c(=O)c(C(=O)O)cn(CC)c3c2F)C1 (stereo not drawn) [Ref.1, reference compound]
3. CCNCC1CCN(c2c(F)cc3c(=O)c(C(=O)O)cn(C4CC4)c3c2Br)C1 (stereo not drawn)

output:
1: 0.025 µg/mL; 2: 0.1 µg/mL; 3: 0.025 µg/mL

====

# EXPERIMENT DESCRIPTION: Absorption and distribution: concentration in blood and organs after oral administration, bioassay by cup method
# Type: in vivo
# STUDY CONDITIONS: rat; rats, fasted, 10 mg/kg oral, liver, 2 hr after administration; Mean ± S.D. (n=5); read-out: Concentration in organs: Liver
Where a name gives a salt, the structure may show the parent alone.
REPORTED PROPERTY: concentration at 2 h (ng/g)
Answers are plain numbers, in ng/g.

{"MOLECULE": "CCNCC1CCN(c2c(F)cc3c(=O)c(C(=O)O)cn(C4CC4)c3c2Cl)C1 (centres unmarked)", "concentration at 2 h / ng/g": 3140}

Switching to the query record.
input: Name the recorded concentration at 2 h for CCNCC1CCN(c2c(F)cc3c(=O)c(C(=O)O)cn(C4CC4)c3c2F)C1 (centres unmarked) [Example 2, hydrochloride] .
output: 4320

====

# System: Salmonella entritidis IID 604
# EXPERIMENT DESCRIPTION: In vitro antibacterial activity, MIC (standard strain)
# Assay type: cell-based
# STUDY CONDITIONS: IID604; Salmonella entritidis IID 604; 10^6 cells/ml; standard strain; read-out: MIC
Where a name gives a salt, the structure may show the parent alone.
Give measured log10(MIC) for each item. Keep answers brief.
log10 MIC, µg/mL

Example entries and their recorded answers appear below.
{"COMPOUND": "CNCC1CCN(c2c(F)cc3c(=O)c(C(=O)O)cn(C4CC4)c3c2Cl)C1 (centres unmarked) [Example 12, hydrochloride]", "REPORTED PROPERTY": "log10(MIC)", "MEASURED": -1.30}
{"COMPOUND": "CCNCC1CCN(c2c(F)cc3c(=O)c(C(=O)O)cn(C4CC4)c3c2Cl)C1 (centres unmarked)", "REPORTED PROPERTY": "log10(MIC)", "MEASURED": -1.30}
{"COMPOUND": "CCNCC1CCN(c2c(F)cc3c(=O)c(C(=O)O)cn(CC)c3c2F)C1 (centres unmarked) [Ref.1, reference compound]", "REPORTED PROPERTY": "log10(MIC)", "MEASURED": -0.41}

# map each compound to its log10(MIC)
1. NCC1CCN(c2c(F)cc3c(=O)c(C(=O)O)cn(C4CC4)c3c2Cl)C1 (centres unmarked) [Example 14, hydrochloride]
2. CC(C)NCC1CCN(c2c(F)cc3c(=O)c(C(=O)O)cn(C4CC4)c3c2F)C1.Cl (centres unmarked)
3. CCNCC1CCN(c2c(F)cc3c(=O)c(C(=O)O)cn(C4CC4)c3c2F)C1 (centres unmarked) [Example 2, hydrochloride]
4. CCNCC1CCN(c2c(F)cc3c(=O)c(C(=O)O)cn(C4CC4)c3c2Br)C1 (centres unmarked)
5. CN(C)CC1CCN(c2c(F)cc3c(=O)c(C(=O)O)cn(C4CC4)c3c2Cl)C1 (centres unmarked)

output:
1: -1.60; 2: -0.70; 3: -1.30; 4: -1.00; 5: -1.00

# map each compound to its log10(MIC)
1. CCNCC1CCN(c2cc3c(cc2F)c(=O)c(C(=O)O)cn3C2CC2)C1.Cl (centres unmarked)
2. CCCNCC1CCN(c2c(F)cc3c(=O)c(C(=O)O)cn(C4CC4)c3c2F)C1 (centres unmarked) [Example 10, hydrochloride]
3. NCC1CCN(c2c(F)cc3c(=O)c(C(=O)O)cn(C4CC4)c3c2F)C1 (centres unmarked) [Example 1, hydrochloride]
4. NCC1CCN(c2c(F)cc3c(=O)c(C(=O)O)cn(C4CC4)c3c2Br)C1 (centres unmarked)
5. CCn1cc(C(=O)O)c(=O)c2cc(F)c(N3CCNCC3)cc21 [NFLX, Norfloxacin, reference compound]
6. CNCC1CCN(c2c(F)cc3c(=O)c(C(=O)O)cn(C4CC4)c3c2Br)C1 (centres unmarked)

output:
-0.70
-1.00
-1.30
-1.60
-1.00
-1.30

====

# Tested on: S. pneumoniae IID 552
# EXPERIMENT DESCRIPTION: In vitro antibacterial activity, MIC (standard strain)
# Assay type: cell-based
# STUDY CONDITIONS: Streptococcus pneumoniae, IID552; S. pneumoniae IID 552; 10^6 cells/ml; standard strain; read-out: MIC
Where a name gives a salt, the structure may show the parent alone.
Give measured MIC for each item. Keep answers brief.
One number for each entry, in µg/mL.

{"COMPOUND": "CN(C)CC1CCN(c2c(F)cc3c(=O)c(C(=O)O)cn(C4CC4)c3c2F)C1 (centres unmarked) [Example 21]", "TARGET OR SYSTEM": "S. pneumoniae IID 552", "MEASURED": 0.2}

# map each compound to its MIC
1. CC(C)NCC1CCN(c2c(F)cc3c(=O)c(C(=O)O)cn(C4CC4)c3c2F)C1.Cl (centres unmarked) [Example 11]
2. CCNCC1CCN(c2c(F)cc3c(=O)c(C(=O)O)cn(CC)c3c2F)C1 (centres unmarked) [Ref.1, reference compound]
3. CCNCC1CCN(c2c(F)cc3c(=O)c(C(=O)O)cn(C4CC4)c3c2F)C1 (centres unmarked) [Example 2, hydrochloride]
4. CCNCC1CCN(c2c(F)cc3c(=O)c(C(=O)O)cn(C4CC4)c3c2Br)C1 (centres unmarked) [Example 17]
5. CNCC1CCN(c2c(F)cc3c(=O)c(C(=O)O)cn(C4CC4)c3c2F)C1 (centres unmarked) [Example 8, hydrochloride]
6. CN(C)CC1CCN(c2c(F)cc3c(=O)c(C(=O)O)cn(C4CC4)c3c2Cl)C1 (centres unmarked) [Example 20]
7. NCC1CCN(c2c(F)cc3c(=O)c(C(=O)O)cn(C4CC4)c3c2Cl)C1 (centres unmarked) [Example 14, hydrochloride]
8. CCCNCC1CCN(c2c(F)cc3c(=O)c(C(=O)O)cn(C4CC4)c3c2F)C1 (centres unmarked) [Example 10, hydrochloride]

output:
[0.39, 0.2, 0.1, 0.05, 0.05, 0.05, 0.025, 0.39]

# map each compound to its MIC
1. CCNCC1CCN(c2c(F)cc3c(=O)c(C(=O)O)cn(C4CC4)c3c2Cl)C1 (centres unmarked) [Example 13]
2. CNCC1CCN(c2c(F)cc3c(=O)c(C(=O)O)cn(C4CC4)c3c2Cl)C1 (centres unmarked) [Example 12, hydrochloride]

output:
[0.05, 0.05]
